Cited source: the supplement of paper PMC10567573

B1: FBXO3 (parent)
chain: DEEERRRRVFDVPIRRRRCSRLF

- Variants of: B1
- Procedure summary: protein stability index of a GFP-peptide fusion (GPS, HEK-293T) (PSI 1-6); higher = more stable;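 also: lentivirally expressed fusions sorted by FACS into six bins by GFP to DsRed ratio, PSI derived from sequencing read proportions per bin multiplied by bin number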
- Cond: c terminus: native
Readout kind: protein stability index
Number only, no unit.

Worked examples, 5 variants total:
E4W; 1.73
C19G; 1.93
R17C; 1.71
S20R; 3.35
R5I; 3.44

Using the record for `R16C` , report its protein stability index.
1.91

Now give it for `F10L` too.
3.06

Now give it for `D11H` too.
2.19

Now give it for `E2W` too.
2.25

Now give it for `R5T` too.
3.51

Now give it for `E2Q` too.
3.19
